test: chemical genetic growth profiling, strain panel (AID 1159580);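 also: tested at 20 µM; growth read once vehicle control cultures reached saturation at 30 °C; lower values mean less growth of the strain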; details: S. cerevisiae deletion strains, growth OD, locus YLR418C, strain cdc73
Out of some 5,500 compounds screened, about 2,000 (36%) were called active. About 18% were inconclusive and are not listed. Rule as the data show it: active = normalized growth mostly below about 0.91 (no sharp cut-off); inconclusive = no clear call, values can overlap the other calls; inactive = mostly above about 0.92. The list shows a part of the results.
Assign a class; possible classes are active, inactive

Solved entries:
CN(C)CCOC(=O)C(c1ccccc1)C1(O)CCCC1 (centres undefined)	inactive
Cc1nc2sccn2c(=O)c1CCN1CCC(=C(c2ccc(F)cc2)c2ccc(F)cc2)CC1	active

Task: So what was the verdict on CC(=O)OCC(=O)[C@@]1(O)[C@H](OC(C)=O)CC2C3CCC4=CC(=O)C=C[C@]4(C)[C@@]3(F)[C@@H](O)C[C@@]21C (some centres undefined) in this test?
Result: inactive

Task: So what was the verdict on COC(=O)CCCOc1ccc(Cl)cc1Cl in this test?
Result: inactive

Task: So what was the verdict on CSc1ccc2c(c1)N(CCC1CCCCN1C)c1ccccc1S2 (centres undefined) in this test?
Result: active

Task: So what was the verdict on CCN(CCCc1ccccc1)CCCc1ccccc1 in this test?
Result: inactive

Task: So what was the verdict on COc1cc(S(C)=O)ccc1-c1nc2ncccc2[nH]1 (centres undefined) in this test?
Result: inactive

Task: So what was the verdict on C[C@H](N)[C@H](O)c1ccccc1 in this test?
Result: inactive

Task: So what was the verdict on C=C1C2=CC(=O)O[C@@H](c3ccoc3)[C@]2(C)CCC1[C@@]1(C)C=CC(=O)C(C)(C)[C@@H]1CC(=O)OC (some centres undefined) in this test?
Result: inactive

Task: So what was the verdict on NC(Cc1ccc(F)cc1)C(=O)O (centres undefined) in this test?
Result: inactive

Task: So what was the verdict on C=C1C2CC[C@@]3(C)[C@H](c4ccoc4)OC(=O)C[C@]13O[C@H]1CC(=O)C(C)(C)C(CC(=O)OC)[C@@]21C (some centres undefined) in this test?
Result: inactive

Task: So what was the verdict on CNCCCN1c2ccccc2CCc2ccccc21 in this test?
Result: inactive

Task: So what was the verdict on CC1=C2[C@H]3OC(=O)[C@@H](C)[C@@H]3CC[C@@]2(C)C=CC1=O in this test?
Result: inactive

Task: So what was the verdict on CC(=O)O[C@H]1CC[C@]2(C)C3C(=O)[C@@H](OC(C)=O)[C@@]4(C)C(C[C@@H]5O[C@]6(CCC(C)CO6)[C@@H](C)[C@@H]54)C3CC[C@H]2C1 (some centres undefined) in this test?
Result: inactive

Task: So what was the verdict on NS(=O)(=O)c1cc2c(cc1Cl)NC(C1CC3C=CC1C3)NS2(=O)=O (centres undefined) in this test?
Result: inactive

Task: So what was the verdict on CCN(CC)CCOC(=O)C(c1ccccc1)c1ccccc1 in this test?
Result: inactive

Task: So what was the verdict on CCN(CC)C(C)CN1c2ccccc2Sc2ccccc21 (centres undefined) in this test?
Result: inactive

Task: So what was the verdict on CC(CN1c2ccccc2Sc2cccnc21)N(C)C (centres undefined) in this test?
Result: inactive

Task: So what was the verdict on COc1cc(OC)c(OC)cc1C=O in this test?
Result: inactive

Task: So what was the verdict on CC(CN(C)C)CN1c2ccccc2Sc2ccccc21 (centres undefined) in this test?
Result: inactive
